Origin of the recorded values: patent US7816339B2

test system: replicon cells; assay: Cell toxicity assay (MTS) on replicon cells; format: cell-based; settings: ratio CC50/EC50, 5-2 cells
Test readout: TI: CC50/EC50 in 5-2 cells

Request: Could you share what TI: CC50/EC50 in 5-2 cells was measured for NC(=O)c1ncn([C@@H]2O[C@H](CO)[C@@H](O)[C@H]2O)n1 [Ribavirin, reference compound] , tested on replicon cells?
Result: ~25

Request: Follow-up item: O=c1nc(N=CN2CCCCC2)ccn1[C@@H]1O[C@H](CO)[C@@H](O)[C@@H]1O [XI, N^4-[Piperidinomethylene]arabinocytidine]
Result: >100

Request: What do you have for O=c1nc(N=CN2CCCC2)ccn1[C@@H]1O[C@H](CO)[C@@H](O)[C@@H]1O [XIII] ?
Result: >100

Request: Please give the result for Nc1ccn([C@@H]2O[C@H](CO)[C@@H](O)[C@@H]2O)c(=O)n1 [Cytarabine, reference compound] too.
Result: >200

Request: Then what about the compound CC(C)N(C=Nc1ccn([C@@H]2O[C@H](CO)[C@@H](O)[C@@H]2O)c(=O)n1)C(C)C [X] ?
Result: >300

Request: Ok, now O=c1nc(/N=C/N2CCOCC2)ccn1[C@@H]1O[C@H](CO)C(O)C1O (stereo in doubt) [XII, N^4-[Morpholinomethylene]arabinocytidine]
Result: >500
